assay: soluble fraction after stress (log2 fold change); higher = more stays soluble; pooled small domains, quantitative proteomics; conditions: stress: 50 degC
Field: soluble fraction (log2). Provide a value for each of the sequences that follow.
The response must contain the number and no unit.

For the sequence HMEDESSIERYLGSGAIKGIGPSLAARIVKKFGKDTFRIIEQEPERLAEIKGISERKAMEISTLMEEK , what soluble fraction (log2) is on record? 0.0193

For the sequence HMTSPRRLYALIVEHVGKDGVMHRSDVENVLAKVESEMDVDDLLDQLEINGTIIRRQDGTWQLL , what soluble fraction (log2) is on record? -0.197

For the sequence HMYTEIDDVKDLLSKIPSVNKLTTADRGMVQAARNAYDALDEDQKLYITIADVEKFNAAVEWMEEH , what soluble fraction (log2) is on record? 0.0056

For the sequence HMGEVPPGWSVEALAAIERDLAHHVGPVARVLVQRGARLHTTTDDLRSALANAITDDLARRRFMQP , what soluble fraction (log2) is on record? -0.416

For the sequence HMRGLFTVYMVGEKASRVGELDEEMVYESRIGDVFALGATSWRIEEITHDRVLVSPAYGQPGRLPFWH , what soluble fraction (log2) is on record? -2.14

For the sequence HMQAPVDPIVLGKMGSSYGIRGWLRVFSSTEDAESIFDYQPWFIQKAGQWQQVQLESWKHHNQDMIIKLN , what soluble fraction (log2) is on record? 0.0749

For the sequence HMDNPKGNLQEAVQAKGNEPIEYRVLNVDGPDHAREFKIAVFIGGKRKGTGVGNSKKKAEEIAAEKAFKRM , what soluble fraction (log2) is on record? 0.127

For the sequence HMLDYITLSPQELGKLLSAGNGDAAMVYLYMKATGDVTLKQAETQLGMTNQNLAWAESLLKRLGLMD , what soluble fraction (log2) is on record? -0.556

For the sequence HMDRFRYYITEDSVQRGTYPYVDETTLKRFTSQLHKYEQGMISAYGYLEYSKPLTAEQIKDYTLMPSP , what soluble fraction (log2) is on record? 0.0317

For the sequence HMQKLKINKYKDPKGEIRYYIASTIRNGNKSSTHNLLSLGKHSDLLKEHSDVEAYLKERLNEAMESGI , what soluble fraction (log2) is on record? -0.145

For the sequence HMAHLSPNDAARLVGVSRPLLNQILDEGRITFFETAGGHRKIKLAAVLAYIKERDEVAAQLAAART , what soluble fraction (log2) is on record? -0.746

For the sequence HMDVPNLVGKTLEEAENELKKLNIRYNVTERADEAPKDTVIEQSPKPYEAMEPGTVVNLVISSGPA , what soluble fraction (log2) is on record? 0.533

For the sequence HMFELTVGTPIRVIREPYFGKLGTVTELPAQLMVVESGTEVRVLKAKIEGEGEVLVPRANVEIIATG , what soluble fraction (log2) is on record? -0.0828

For the sequence HMKSILSEIPGIGPKKRKSLMMQFGSVKNISEASLKDLSSTKGINSNLSKEIFNFFSVEKNN , what soluble fraction (log2) is on record? -0.0118

For the sequence HMANPEFAGYINGKPYFGPTHQHRGVKMLGATHTRNPHPLVWDSIAESLANYDSRFRWSGGQIL , what soluble fraction (log2) is on record? -0.429

For the sequence HMEDQFWQNRAEMALASARRAGRIVTYAEMADAADIPAPQRIHKLTLWLEATMRQDHASGQPLRAALV , what soluble fraction (log2) is on record? 0.0463

For the sequence HMDQVLHQLVEVLRRSEIRISPAETLDAFKVLRNVGIDNKSLLREALALTLAKSIHEKIIFYETFDEFFT , what soluble fraction (log2) is on record? -1.16

---

test: soluble fraction after stress (log2 fold change); higher = more stays soluble; pooled small domains, quantitative proteomics; details: stress: 50 degC
Quick rule for you: soluble fraction (log2) at -0.1 or higher means 1 (yes), lower means 0 (no).

Determine whether measured soluble fraction (log2) meets or exceeds -0.1 for HMVPPELEFLQSLMKIEDISELTAAIENNRDAVTDDFKEMLETVIENISGAPDTDPKLLERLKTIRTVLA 1 (yes)

Determine whether measured soluble fraction (log2) meets or exceeds -0.1 for HMSEITQTLSMIGKEVTLEIPDEKDKTKTTEVKGIVTEASFKDGTGKVKVNGEYYSIAYITSIRDT 1 (yes)

Determine whether measured soluble fraction (log2) meets or exceeds -0.1 for HMGRKEIIVPNLLGKYAIEAGTILKNAGLLEGQAREENSDTYPAGQIMDQFPKANTPANENDKVDYVVSI 1 (yes)

Determine whether measured soluble fraction (log2) meets or exceeds -0.1 for HMDSHSAESVRQRIKDMIAAEASKSILSDDTIVENLKSEGIEIARRTVAKYRESLNIPSSIQRRRIARSEA 1 (yes)

Determine whether measured soluble fraction (log2) meets or exceeds -0.1 for HMIVKQPDIRKQELLDIGVRLYFEAGEKGVSIQQVVKQAGVATGLFYYYFSSKDAFLDEALNDYID 1 (yes)

Determine whether measured soluble fraction (log2) meets or exceeds -0.1 for HMANMTAKQINMFGDKLSRDKDFQSYYIAKSGDSREQYAQDIKGKLLDPFYVNAWMPYLEKIGFVPS 1 (yes)

Determine whether measured soluble fraction (log2) meets or exceeds -0.1 for HMSNWYGTVVKIQPRPNAQAADTAVVKLLDGSEHRFPVWADHLTTIEVGSRLKKLSGGWDPVLMDPEETF 0 (no)

Determine whether measured soluble fraction (log2) meets or exceeds -0.1 for HMSSTSTMTVAEATIGRKVKHDKFGEGTIITVADVNGDKKLTIAFNQQGVKMLMLSMAKLEL 0 (no)

---

Field: soluble fraction (log2). Provide a value for each of the sequences that follow.
assay: soluble fraction after stress (log2 fold change); higher = more stays soluble; pooled small domains, quantitative proteomics; conditions: stress: 50 degC
The response must contain the number and no unit.

For the sequence HMEDHMVVFGKGGRITRLPDKATVLEYLDAANFFASRSSVVKVNGKLASLDQTLRDGDSIEIVD , what soluble fraction (log2) is on record? -0.183

For the sequence HMLNVNDVIARNVRAARERKKLTLDGAAELTGVSRSMLAQIEKGEVNPTISVVWKIANGFKVSFTSLVEPQ , what soluble fraction (log2) is on record? -0.498

For the sequence HMGIRDIHITVNGESLKLSKKQNYIFVDIFDFYPFDLSILGGSKLITTINGEQAEFTSPLKDGDVVELYWK , what soluble fraction (log2) is on record? -0.61

For the sequence HMGSQQIEEGMRRLVASGALRPGASVPSVRDLARDLQVNPATVVRAYQRLVDAGLLVVRRGEGTFVAE , what soluble fraction (log2) is on record? -0.588

For the sequence HMERLSNQVYAILKEMIADYRFNPGARINVEQIAKEVGASRTPVWEAVHRLVQEGLLENIPNRGVFML , what soluble fraction (log2) is on record? -1.41

For the sequence HMSVTDDQLRVFTNKSGTKIKAKIVEVSDDKVKLIRDDNKKFIVPINSLSEEDQDYLRDWVSNEAVEP , what soluble fraction (log2) is on record? 0.0333

For the sequence HMNESADMPDVVNMSLEAAKSQLEGMGLKVKVENVEDDSVEENHVIKTSPVSGEKVKLGTTVTLTVSKGR , what soluble fraction (log2) is on record? -0.0231

For the sequence HMRMTTEQLMSFLKQHFPQVADNFTVRISDEGRLSVEMPVNDKHLRPGGTVSGPSMFALADVAFYLAILQ , what soluble fraction (log2) is on record? -1.16

For the sequence HMSTSEQVYTTDKVNVRREADTSSEKLGSLEKGTAISRTGTEGEWSVVNYGGVTGYIKTEFLTTEQPQ , what soluble fraction (log2) is on record? 0.132

For the sequence HMLADTNIHTIALKHRLANEVVEQVRPFLPETATIRAYDNMLILKSDRATLANVEQLIKKLDT , what soluble fraction (log2) is on record? 0.0983

For the sequence HMGIEQVELASRVRDAVDSLPHHLREIILLSYFQKMSYNQIAETLQVPLGTVKSRLHAAVASFAQAWTQSS , what soluble fraction (log2) is on record? -0.706

For the sequence HMKQAVESAEAIFEEIARIKKLSLVKSEAEEIARKTGLQKFTIASQLLKNQHAYEMDESEIASLWDKKI , what soluble fraction (log2) is on record? 0.0237

For the sequence HMTNVLSEQESKLLERMNKAGLNAEITVKKAAQILNLSESAARNVLNRLVGKGYLTVDTSRLPFLFQR , what soluble fraction (log2) is on record? -0.0793

For the sequence HMVQIVINKEVQTTSQTILRENAGTSSRNIGYVDPNVKLRATLDRNSFYFIPEKKGWIMKSRVKLIEDLS , what soluble fraction (log2) is on record? -3.79

For the sequence HMTELPLTPRSKRILEMSALEARRLNHSYIGTEHLLMAIIRDGDGVAAKILESLGVNLPNFYTDTVRSIE , what soluble fraction (log2) is on record? -0.121

For the sequence HMELEWENYSLAGEIKTTVMLYQNRRNGLPEEAKQKADALMKQLKQAVIENDAQKVEKIDDALTALLFE , what soluble fraction (log2) is on record? -0.15

For the sequence HMSKHAIQNELEKIEGIGKQTADSLLKEFKSVKKLRTLPLSEIEKVIGKSKATIVFEALHKDK , what soluble fraction (log2) is on record? 0.133
